This collection of values is drawn from ChEMBL document CHEMBL5150005.

Assay: Volume of distribution at steady state in monkey
Type: ADME, Macaca mulatta
Details: rhesus monkey, in vivo; read-out: Vdss
readout_name: Vd (L/kg)
Could you give me the number in L/kg? Just the number is fine.

stdin: Name the recorded Vd for CCc1cc2ncc(CN3CCN(c4ccc(C(=O)NC)nc4)CC3)cc2[nH]c1=O .
stdout: 0.38

###

Assay: in vitro
Details: dog, plasma
readout_name: fraction unbound

stdin: Name the recorded fraction unbound for CCc1cc2ncc(CN3CCN(c4ccc(C(=O)NC)nc4)CC3)cc2[nH]c1=O .
stdout: 0.17

###

Target: Protein mono-ADP-ribosyltransferase PARP9 (Homo sapiens)
Active and inactive are the calls of the source.
readout_name: Kd(app)

C[C@]1(c2nc3c(C(N)=O)cccc3[nH]2)CCCN1 :: Active
CCc1cc2ncc(CN3CCN(c4ccc(C(=O)NC)nc4)CC3)cc2[nH]c1=O :: Active
Cn1ncnc1[C@H]1c2n[nH]c(=O)c3cc(F)cc(c23)N[C@@H]1c1ccc(F)cc1 :: Active
NC(=O)c1cccc2cn(-c3ccc([C@@H]4CCCNC4)cc3)nc12 :: Active
